Hi there, I'd appreciate the recorded EC50 for every entry that follows.
biological target: APJ receptor (Homo sapiens (Human), UniProt P35414); experiment: [35S]GTPγS binding assay on membranes from CHO cells stably expressing human APJ receptor; settings: membranes of CHO cells stably expressing human APJ receptor, means of several independent experiments, read-out: Activity hAPJ SPA EC50 IP
Sequence (P35414 whole entry): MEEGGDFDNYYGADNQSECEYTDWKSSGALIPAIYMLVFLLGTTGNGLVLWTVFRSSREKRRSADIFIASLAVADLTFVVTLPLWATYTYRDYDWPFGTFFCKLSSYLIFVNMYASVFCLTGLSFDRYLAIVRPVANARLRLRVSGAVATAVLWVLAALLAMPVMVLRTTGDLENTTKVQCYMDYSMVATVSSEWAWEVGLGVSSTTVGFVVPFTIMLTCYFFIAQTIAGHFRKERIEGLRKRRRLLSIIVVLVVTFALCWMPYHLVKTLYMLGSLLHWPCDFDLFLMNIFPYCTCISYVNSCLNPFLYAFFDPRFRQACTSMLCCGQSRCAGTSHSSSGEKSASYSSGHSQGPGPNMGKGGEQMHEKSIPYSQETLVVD
Supply the numeric figure in nM, leaving out any unit text.

Fill in the blank: the reported EC50 of COc1cccc(OC)c1-n1c(NS(=O)(=O)[C@@H](C)[C@H](O)c2cc3n(n2)CCCO3)nnc1-c1ccc(C)o1 (single isomer, unassigned) is ____.
5.1

Fill in the blank: the reported EC50 of `COc1ncnc(OC)c1-n1c(NS(=O)(=O)[C@@H](C)[C@H](C)c2ncc(F)cn2)nnc1-c1ccc(C)o1` is ____.
0.28

Fill in the blank: the reported EC50 of COC[C@@H](Cc1ncc(F)cn1)S(=O)(=O)Nc1nnc(-c2ccc(C)o2)n1-c1c(OC)cccc1OC (single isomer, unassigned) [Example 72.0] is ____.
0.48

Fill in the blank: the reported EC50 of `COC[C@H](C)n1c(NS(=O)(=O)[C@@H](C)[C@H](C)c2ncc(Cl)cn2)nnc1-c1ccc(C)o1` is ____.
10

Fill in the blank: the reported EC50 of COc1cccc(OC)c1-n1c(NS(=O)(=O)[C@@H](C)[C@H](OC)c2ncc(F)cn2)nnc1-c1ccc(C)o1 (single isomer, unassigned) is ____.
0.056

Fill in the blank: the reported EC50 of COc1cccc(OC)c1-n1c(NS(=O)(=O)[C@H](C)Cc2ccncn2)nnc1-c1ccco1 (single isomer, unassigned) [Example 46.0] is ____.
300

* * *

target: APJ receptor (Homo sapiens (Human), UniProt P35414); assay: [35S]GTPγS binding assay on membranes from CHO cells stably expressing human APJ receptor; details: membranes of CHO cells stably expressing human APJ receptor, means of several independent experiments, read-out: Activity hAPJ SPA EC50 IP
pEC50: −log10 of the molar value.
Tag: T if measured pEC50 is not below 9, F if it is.

Reported pEC50 reaches at least 9 for COc1cccc(OC)c1-n1c(NS(=O)(=O)[C@@H](C)[C@@H](O)c2cn3ccccc3n2)nnc1-c1ccc(C)o1 (single isomer, unassigned) ?
F

Reported pEC50 reaches at least 9 for COc1cccc(OC)c1-n1c(NS(=O)(=O)C[C@@](C)(F)c2ncc(C#N)cn2)nnc1-c1ccc(C)o1 (racemic) [Example 229.0] ?
T

Reported pEC50 reaches at least 9 for `COc1ncnc(OC)c1-n1c(NS(=O)(=O)[C@@H](C)[C@H](OC)c2ncc(Cl)cn2)nnc1-c1ccc(C)o1` ?
T

Reported pEC50 reaches at least 9 for COc1ccnc(N2C[C@H](O)C[C@H](S(=O)(=O)Nc3nnc(-c4ccc(C)o4)n3-c3c(OC)cccc3OC)C2)n1 (single isomer, unassigned) [Example 327.0] ?
T

Reported pEC50 reaches at least 9 for COc1cccc(OC)c1-n1c(NS(=O)(=O)[C@H]2CCCN(S(=O)(=O)C(C)C)C2)nnc1-c1ccco1 (single isomer, unassigned) ?
F

* * *

target: APJ receptor (Homo sapiens (Human)); assay: [35S]GTPγS binding assay on membranes from CHO cells stably expressing human APJ receptor; details: membranes of CHO cells stably expressing human APJ receptor, means of several independent experiments, read-out: Activity hAPJ SPA EC50 IP
Hi there, I'd appreciate the recorded EC50 for every entry that follows.
Provide a numeric answer, followed by its unit.

Fill in the blank: the reported EC50 of COc1cccc(OC)c1-n1c(NS(=O)(=O)[C@@H](C)[C@H](C)c2ncc(F)cn2)nnc1-c1ccc(C)o1 (racemic) [Example 135.0] is ____.
16 nM

Fill in the blank: the reported EC50 of COc1cccc(OC)c1-n1c(NS(=O)(=O)[C@H]2C[C@@H](O)CN(c3cc(C#N)ccn3)C2)nnc1-c1ccc(C)o1 (racemic) is ____.
0.45 nM

Fill in the blank: the reported EC50 of COc1cccc(OC)c1-n1c(NS(=O)(=O)[C@@H](C)Cc2ccc(Cl)cn2)nnc1-c1ccco1 (racemic) is ____.
0.2 nM

Fill in the blank: the reported EC50 of COc1cccc(OC)c1-n1c(NS(=O)(=O)[C@H](C)[C@@H](O)c2cscn2)nnc1-c1ccc(C)o1 (single isomer, unassigned) is ____.
28 nM

Fill in the blank: the reported EC50 of `COc1cccc(OC)c1-n1c(NS(=O)(=O)CCc2ccc(F)cc2C#N)nnc1-c1ccc(C)o1` is ____.
0.15 nM

Fill in the blank: the reported EC50 of `COCC1(n2c(NS(=O)(=O)[C@@H](C)[C@H](OC)c3ncc(Cl)cn3)nnc2-c2ccc(C)o2)CC1` is ____.
0.38 nM

Fill in the blank: the reported EC50 of COc1cccc(OC)c1-n1c(NS(=O)(=O)[C@@H]2COCC[C@@H]2O)nnc1-c1ccc(C)o1 (single isomer, unassigned) [Example 403.0] is ____.
57 nM

Fill in the blank: the reported EC50 of `COc1cccc(OC)c1-n1c(NS(=O)(=O)[C@H](CCO)Cc2ncc(C)cn2)nnc1-c1ccc(C)o1` is ____.
1.1 nM

Fill in the blank: the reported EC50 of COc1cccc(OC)c1-n1c(NS(=O)(=O)[C@@H](C)[C@H](O)c2ncc(C#N)cc2F)nnc1-c1ccc(C)o1 (single isomer, unassigned) is ____.
0.37 nM

Fill in the blank: the reported EC50 of COc1cccc(OC)c1-n1c(NS(=O)(=O)[C@H](C)Cc2ncc(Cl)cc2NC(C)=O)nnc1-c1ccco1 (single isomer, unassigned) is ____.
0.091 nM

Fill in the blank: the reported EC50 of `COc1cccc(OC)c1-n1c(NS(=O)(=O)CCc2ncc(Cl)cc2N2CCC2=O)nnc1-c1ccco1` is ____.
0.46 nM

Fill in the blank: the reported EC50 of COc1cccc(OC)c1-n1c(NS(=O)(=O)[C@H]2C[C@@H](O)CN(c3ncc(F)cc3C#N)C2)nnc1-c1ccc(C)o1 (racemic) [Example 331.0] is ____.
0.45 nM

Fill in the blank: the reported EC50 of COc1cccc(OC)c1-n1c(NS(=O)(=O)CCN2C(=O)N(C)CC[C@H]2C)nnc1-c1ccc(C)o1 (mixture of isomers) is ____.
0.5 nM

Fill in the blank: the reported EC50 of CCOC(=O)[C@@H]1C[C@H](S(=O)(=O)Nc2nnc(-c3ccco3)n2-c2c(OC)cccc2OC)CN(c2ncc(F)cn2)C1 (single isomer, unassigned) is ____.
0.36 nM

Fill in the blank: the reported EC50 of COc1ccccc1-n1c(NS(=O)(=O)[C@@H](C)Cc2ncc(F)cn2)nnc1-c1ccc(C)o1 (racemic) is ____.
6.1 nM

Fill in the blank: the reported EC50 of COc1cccc(OC)c1-n1c(NS(=O)(=O)C[C@@H](C)c2ncc(F)cn2)nnc1-c1ccc(C)o1 (single isomer, unassigned) [Example 123.0] is ____.
0.24 nM

Fill in the blank: the reported EC50 of COc1cccc(OC)c1-n1c(NS(=O)(=O)C[C@@](C)(O)c2ncc(F)cn2)nnc1-c1ccc(C)o1 (single isomer, unassigned) is ____.
2.5 nM

Fill in the blank: the reported EC50 of COc1cccc(OC)c1-n1c(NS(=O)(=O)[C@H](C)[C@@H](O)c2ncn3ccccc23)nnc1-c1ccc(C)o1 (single isomer, unassigned) [Example 270.0] is ____.
0.56 nM

Fill in the blank: the reported EC50 of `COc1ncnc(OC)c1-n1c(NS(=O)(=O)[C@@H](C)[C@H](C)c2ncc(F)cn2)nnc1-c1ccc(Br)o1` is ____.
0.31 nM

Fill in the blank: the reported EC50 of COc1cccc(OC)c1-n1c(NS(=O)(=O)CCN2C(=O)[C@H](C)C[C@H]2C)nnc1-c1ccco1 (single isomer, unassigned) is ____.
1.9 nM

Fill in the blank: the reported EC50 of COc1cccc(OC)c1-n1c(NS(=O)(=O)[C@@H](C)[C@H](O)c2cn(C)cn2)nnc1-c1ccc(C)o1.COc1cccc(OC)c1-n1c(NS(=O)(=O)[C@H](C)[C@@H](O)c2cn(C)cn2)nnc1-c1ccc(C)o1 (mixture of isomers) is ____.
13 nM

Fill in the blank: the reported EC50 of COc1cccc(OC)c1-n1c(NS(=O)(=O)[C@@H](C)[C@@H](OC)c2ncc(F)cn2)nnc1-c1ccc(C)o1 (single isomer, unassigned) is ____.
6.8 nM

Fill in the blank: the reported EC50 of `COc1ncnc(OC)c1-n1c(NS(=O)(=O)[C@@H](C)[C@H](C)c2ncc(C#N)cn2)nnc1-c1ccc(C)o1` is ____.
0.51 nM

* * *

molecular target: APJ receptor (Homo sapiens (Human), UniProt P35414); assay: [35S]GTPγS binding assay on membranes from CHO cells stably expressing human APJ receptor; settings: membranes of CHO cells stably expressing human APJ receptor, means of several independent experiments, read-out: Activity hAPJ SPA EC50 IP
EC50 less than 0.4 nM is Condition met; EC50 greater than or equal to 0.4 nM is Condition not met.

In the record for COc1cccc(OC)c1-n1c(NS(=O)(=O)C[C@H](O)c2ccc(C#N)cn2)nnc1-c1ccc(C)o1 (single isomer, unassigned) [Example 58.0] , is EC50 less than 0.4 nM?
Condition met

In the record for COc1cccc(OC)c1-n1c(NS(=O)(=O)CCN2C(=O)N(C)CC[C@@H]2C)nnc1-c1ccc(C)o1 (single isomer, unassigned) [Example 204.0] , is EC50 less than 0.4 nM?
Condition met

In the record for COc1cccc(OC)c1-n1c(NS(=O)(=O)[C@H](C)[C@H](O)c2cn3ccccc3n2)nnc1-c1ccc(C)o1 (racemic) , is EC50 less than 0.4 nM?
Condition not met

In the record for COc1cccc(OC)c1-n1c(NS(=O)(=O)[C@H](C)[C@H](OC)c2cn3ccccc3n2)nnc1-c1ccc(C)o1 (single isomer, unassigned) , is EC50 less than 0.4 nM?
Condition not met

In the record for COc1cccc(OC)c1-n1c(NS(=O)(=O)[C@H](C)[C@@H](OC)c2cn3ccccc3n2)nnc1-c1ccc(C)o1 (single isomer, unassigned) [Example 287.0] , is EC50 less than 0.4 nM?
Condition not met
